MEASURED TARGET: Bem1-1, P29366
Sequence (P29366 55-141): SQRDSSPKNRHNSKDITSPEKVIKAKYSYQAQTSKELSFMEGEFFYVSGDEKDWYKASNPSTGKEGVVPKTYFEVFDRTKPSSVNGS
TEST METHOD NOTES: SPOT array
MEASUREMENT SETUP: median of control spots 4282
MEASURED PARAMETER: SPOT intensity

Hello, please tell me recorded SPOT intensity for this one: LKRITSPPLPPRADS 0

(P) PHNPSPFFPPPDFND
(Q) AERNYAPRLPRRETS
// pick larger SPOT intensity from pair: P vs Q API: response body contains the label of the selected item. Q
(Q: 1, P: 0)

(1) KNPRRQLQIPRQQPS
(2) RVRKTHVPASKRPSG
// pick larger SPOT intensity from pair: 1 vs 2 API: response body contains the label of the selected item. 1

Values from paper PMC2756588
